protocol_text: HSF-1 activators, primary screen, NIH3T3-HGL cells, MG132 stress, luminescence, single point (AID 504408);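 further: 0% = median of the neutral control wells and 100% = twice that signal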
assay_conditions: NIH3T3-HGL HSF-1 luciferase reporter, MG132, 8 h; at 9 µM; 100% = twice DMSO control signal
In all, about 300,000 compounds went through this assay and about 5,200 (1.7%) were called active.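 How the source made its calls: active means mean replicate activation of at least 50% with a set share of replicates each reaching 50%; inconclusive means only one of those two conditions met; inactive means mean below 50% and too few replicates reaching it.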 Only a selection was taken, and actives are over-represented in it overall.
Labels: active, inactive

1) Cc1csc(NC(=O)c2ccc(C)s2)n1: inactive
2) C/C(=N\Nc1nc2ccccc2[nH]1)c1cccs1: active
3) Cc1ccc(NC(=S)NC(=O)/C=C/c2ccc(Cl)cc2)cc1: inactive
4) Cc1ccc(CSCC(=O)N(C)CC(=O)Nc2ccc(C)cc2)cc1: inactive
5) Cc1nc2c(c(C)nn2-c2ccccc2)c(C)c1C: inactive
6) O=C(c1ccncc1)N1CCN(S(=O)(=O)c2cc(C(F)(F)F)cc(C(F)(F)F)c2)CC1: inactive
7) Cc1ccc(S(=O)(=O)Nc2nc3ccccc3s2)cc1[N+](=O)[O-]: inactive
8) Cc1ccc(-c2cc(=O)[nH]c(NCc3ccccc3)n2)cc1: inactive
9) CCOc1ccc(CCNC(=O)COC(=O)c2ccc(F)c(S(=O)(=O)N3CCOCC3)c2)cc1OCC: inactive
10) CCN1C(=O)[C@@H]2[C@@H](c3ccc(-c4ccc(OC)cc4)c(OC)c3)N3CCC[C@@]3(C(=O)OC)[C@@H]2C1=O: inactive
11) O=C(Nc1ccccc1-c1nc2ccccc2[nH]c1=O)c1cccs1: inactive
12) O=C(COC(=O)c1ccc([N+](=O)[O-])cc1Cl)NC(=O)c1ccccc1: inactive
13) CCOc1ccc(CCNC(=O)COC(=O)C2CCN(c3ccc(C(F)(F)F)cn3)CC2)cc1OCC: inactive
14) Cc1ccc(O)c(CNc2nc3ccccc3[nH]2)c1: active
15) O=[N+]([O-])c1cc(Br)c(O)c(/C=N/Nc2nc3ccccc3s2)c1: active
16) Cc1ccc(C(=O)/C=C/c2c(C)nn(-c3ccccc3)c2Cl)cc1: inactive
17) Cc1ccccc1NC(=O)N1CCCC1C(=O)NCc1ccccc1 (configuration not stated): inactive
18) COCCCNC(=O)/C=C/c1ccc(OCc2c(F)cccc2Cl)cc1: inactive
19) COc1ccccc1OCC(=O)Nc1ccccc1C(=O)NC1CC1: inactive
20) COc1ccc(-c2cc(C(=O)N/N=C/c3cccnc3)c3ccccc3n2)c(OC)c1: inactive
21) COc1ccccc1-n1ccnc(SCC(=O)NC2CCCCC2)c1=O: inactive
22) Cc1nn(-c2ccccc2)c(Cl)c1C(=O)Nc1ccccc1: inactive

====

protocol_text: HSF-1 activators, primary screen, NIH3T3-HGL cells, MG132 stress, luminescence, single point (AID 504408);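 further: 0% = median of the neutral control wells and 100% = twice that signal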
assay_conditions: NIH3T3-HGL HSF-1 luciferase reporter, MG132, 8 h; at 9 µM; hits give high values; 100% = twice DMSO control signal
Screen size: about 300,000 compounds; about 5,200 (1.7%) were called active. For the sample, actives were picked, then their nearest neighbours and some compounds at random.
# reported activation; entries follow
value_kind: activation (%)

1) Cc1ccc(NC(=O)c2cc3ccccc3o2)cc1: 51.6
2) Cc1ccc(C)c(-c2nnc(NC(=O)CS(=O)(=O)c3ccccc3)o2)c1: -10.1
3) C/C(CCC(=O)OC[C@H]1O[C@H](C#Cc2ccccc2)C=C[C@@H]1Oc1ccc(C)cc1)=N\OC[C@@H](O)[C@H]1O[C@@H]2OC(C)(C)O[C@@H]2[C@H]1O: 61.7
4) CCCN(CCC)c1nc2c(C)cccn2c(=O)c1/C=C1/SC(=S)N(Cc2ccco2)C1=O: 99
5) Cc1ccc(OC(=O)c2cc3ccccc3o2)cc1: 5.61
6) C/C(=N\NC(=S)Nc1ccc(C)cc1)c1cc2ccccc2o1: 7.68
7) COc1ccc(O[C@H]2C=C[C@@H](c3ccccc3)O[C@@H]2CO/N=C/C[C@@H]2C=C[C@H](OC(C)=O)[C@@H](COC(C)=O)O2)cc1: -4.12
8) O=C(CCCN1C(=O)/C(=C\c2ccco2)SC1=S)Nc1cccc2ccccc12: 14.2
9) COc1ccc(C2CC(c3ccccc3)=NN2C(=O)c2ccc(Cl)c([N+](=O)[O-])c2)cc1 (centres undefined): 73.2
